# target.or.system: hPK, M2 (Homo sapiens, UniProt P14618)
# Sequence (P14618 whole entry): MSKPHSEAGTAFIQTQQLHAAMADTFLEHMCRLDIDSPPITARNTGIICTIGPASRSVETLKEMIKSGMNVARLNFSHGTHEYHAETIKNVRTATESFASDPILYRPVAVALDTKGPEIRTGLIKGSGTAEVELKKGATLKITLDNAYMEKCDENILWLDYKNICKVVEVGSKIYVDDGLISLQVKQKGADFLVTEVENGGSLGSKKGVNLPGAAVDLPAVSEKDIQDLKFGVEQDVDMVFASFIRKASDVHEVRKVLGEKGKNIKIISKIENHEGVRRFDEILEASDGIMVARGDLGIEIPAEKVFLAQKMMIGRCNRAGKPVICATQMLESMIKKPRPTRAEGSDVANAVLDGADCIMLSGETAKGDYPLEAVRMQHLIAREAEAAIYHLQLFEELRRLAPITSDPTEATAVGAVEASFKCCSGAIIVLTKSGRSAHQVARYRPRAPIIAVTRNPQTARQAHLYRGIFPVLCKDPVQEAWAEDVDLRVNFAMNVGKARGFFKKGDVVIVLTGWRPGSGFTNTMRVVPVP
# protocol.notes: luminescent pyruvate kinase-luciferase coupled assay (qHTS)
# Assay type: biochemical
# test.context: Table 2; 0.1 mM ADP, 0.5 mM PEP; mean of three replicate experiments; read-out: hPK, M2 AC50
quantity.kind: log10 AC50 (log10 of the value in µM)
// stored as log10 of AC50 expressed in µM

Recorded log10 AC50, per entry:
{"substance.smiles": "O=C1CCc2cc(S(=O)(=O)NCc3ccccc3)ccc2N1", "val": 1.15}
{"substance.smiles": "COc1ccc(NS(=O)(=O)c2ccc3c(c2)CCC(=O)N3)cc1", "val": 1.56}
{"substance.smiles": "COc1ccccc1NS(=O)(=O)c1ccc2c(c1)CCC(=O)N2", "val": 1.32}

Inquiry: Look up log10 AC50 for this molecule: `O=C1CCc2cc(S(=O)(=O)Nc3ccc(F)cc3)ccc2N1`
Reply text: 1.00

Inquiry: Quick one: `Cc1ccc(NS(=O)(=O)c2ccc3c(c2)CCC(=O)N3)cc1`
Reply text: 0.61

Inquiry: Again, but for `O=C1CCc2cc(S(=O)(=O)Nc3cccc4ccccc34)ccc2N1`
Reply text: 1.00

Inquiry: Next molecule: `Cc1cccc(NS(=O)(=O)c2ccc3c(c2)CCC(=O)N3)c1`
Reply text: 0.08

Inquiry: Next molecule: `O=C1CCc2cc(S(=O)(=O)Nc3cccc(C(F)(F)F)c3)ccc2N1`
Reply text: 1.11

Inquiry: And for `O=C1CCc2cc(S(=O)(=O)Nc3cccc(F)c3)ccc2N1` ?
Reply text: 0.26

----------
# target.or.system: hPK, M2 (Homo sapiens, UniProt P14618)
# protocol.notes: luminescent pyruvate kinase-luciferase coupled assay (qHTS)
# Assay type: biochemical
# test.context: Table 4; 0.1 mM ADP, 0.5 mM PEP; read-out: AC50
// reported AC50 for each item listed
Write the number in nM without appending the unit.

Inquiry: Please report the recorded AC50 for `O=C1CCc2cc(S(=O)(=O)Nc3ccc(Cl)c(Cl)c3)c(F)cc2N1` .
Reply text: 3660

Inquiry: Input CC(=O)N1c2ccc(S(=O)(=O)Nc3ccc(C)c(C)c3)cc2CC1C (centres unmarked)
Reply text: 18300

Inquiry: Same lookup for `Cc1ccc(NS(=O)(=O)c2cc3c(cc2Cl)NC(=O)C3)cc1C` , please.
Reply text: 920

Inquiry: Also check `Cc1cc(NS(=O)(=O)c2cc3c(cc2N[C@@H](C)CO)NC(=O)CC3)ccc1F`
Reply text: 270

Inquiry: Subsequent entry: `Cc1ccc(NS(=O)(=O)c2cc3c(cc2NC(C)C)NC(=O)CC3)cc1C`
Reply text: 320

----------
# target.or.system: hPK, M2 (Homo sapiens)
# protocol.notes: luminescent pyruvate kinase-luciferase coupled assay (qHTS)
# Assay type: biochemical
# test.context: Table 4; 0.1 mM ADP, 0.5 mM PEP; read-out: AC50
quantity.kind: AC50 (µM)
Give the quantity in µM, number only.

Reference set, count: 5
{"molecule": "O=C1CCc2cc(S(=O)(=O)Nc3cccc(B(O)O)c3)ccc2N1 [Compound 52]", "val": 0.82}
{"molecule": "Cc1ccc(NS(=O)(=O)c2cc3c(cc2N[C@H](C)CO)NC(=O)CC3)cc1C [Compound 69]", "val": 0.37}
{"molecule": "N#Cc1cccc(NS(=O)(=O)c2ccc3c(c2)CCC(=O)N3)c1 [Compound 46]", "val": 9.19}
{"molecule": "Cc1cc(NS(=O)(=O)c2cc3c(cc2F)NC(=O)CC3)ccc1Cl [Compound 56]", "val": 0.82}
{"molecule": "CCN(CC)c1cc2c(cc1S(=O)(=O)Nc1ccc(C)c(C)c1)CCC(=O)N2 [Compound 66]", "val": 7.24}

Inquiry: Which value of AC50 has been reported for Cc1ccc(NS(=O)(=O)c2cc3c(cc2N[C@@H](C)CO)NC(=O)CC3)cc1Cl [Compound 71] in the records?
Reply text: 0.08

Inquiry: Same thing, different molecule: O=C1CCc2cc(S(=O)(=O)Nc3ccc(Cl)c(Cl)c3)ccc2N1 [Compound 44]
Reply text: 2.59

Inquiry: And what about the molecule Cc1ccc(NS(=O)(=O)c2ccc3c(c2)CCC(=O)N3)cc1F [Compound 55] ?
Reply text: 0.46

Inquiry: What do you have for Cc1ccc(NS(=O)(=O)c2cc3c(cc2N[C@@H](C)CO)NC(=O)CC3)cc1C [Compound 68] ?
Reply text: 0.09

Inquiry: Next up: C[C@@H](CO)Nc1cc2c(cc1S(=O)(=O)Nc1ccc(F)c(Cl)c1)CCC(=O)N2 [Compound 73]
Reply text: 0.14

Inquiry: Now the same for Cc1ccc(NS(=O)(=O)c2cc3c(cc2NC(C)CO)NC(=O)CC3)cc1C (centres unmarked) [Compound 67]
Reply text: 0.11

Inquiry: Continue with Cc1ccc(NS(=O)(=O)c2cc3c(cc2NCC(C)(C)O)NC(=O)CC3)cc1C [Compound 64]
Reply text: 1.83

----------
Reported activation at 57 µM values for a set of molecules
# target.or.system: hPK, M2 (Homo sapiens, UniProt P14618)
# protocol.notes: luminescent pyruvate kinase-luciferase coupled assay (qHTS)
# Type: biochemical
# test.context: Table 2; % activation at 57 μM of compound; mean of three replicate experiments; read-out: hPK, M2 Max. Res.
Your answer is read as %, so omit the unit and give the number.

Known activation at 57 µM results, listed for orientation:
{"molecule": "COc1cccc(NS(=O)(=O)c2ccc3c(c2)CCC(=O)N3)c1 [Compound 15]", "quantity.kind": "activation at 57 µM", "result.units": "%", "val": 91}
{"molecule": "Cc1cccc(NS(=O)(=O)c2ccc3c(c2)CCC(=O)N3)c1 [Compound 14]", "quantity.kind": "activation at 57 µM", "result.units": "%", "val": 99}
{"molecule": "COc1ccccc1NS(=O)(=O)c1ccc2c(c1)CCC(=O)N2 [Compound 25]", "quantity.kind": "activation at 57 µM", "result.units": "%", "val": 60}
{"molecule": "O=C1CCc2cc(S(=O)(=O)Nc3cccc(Cl)c3)ccc2N1 [Compound 13]", "quantity.kind": "activation at 57 µM", "result.units": "%", "val": 100}
{"molecule": "Cc1ccccc1NS(=O)(=O)c1ccc2c(c1)CCC(=O)N2 [Compound 24]", "quantity.kind": "activation at 57 µM", "result.units": "%", "val": 96}
{"molecule": "O=C1CCc2cc(S(=O)(=O)Nc3ccc4c(c3)OCCO4)ccc2N1 [Compound 29]", "quantity.kind": "activation at 57 µM", "result.units": "%", "val": 86}
{"molecule": "O=C1CCc2cc(S(=O)(=O)Nc3cccc4ccccc34)ccc2N1 [Compound 28]", "quantity.kind": "activation at 57 µM", "result.units": "%", "val": 101}
{"molecule": "O=C1CCc2cc(S(=O)(=O)Nc3ccc(F)cc3)ccc2N1 [Compound 23]", "quantity.kind": "activation at 57 µM", "result.units": "%", "val": 99}

Turning now to a further record.
Inquiry: Consider the molecule shown here: Cc1ccc(NS(=O)(=O)c2ccc3c(c2)CCC(=O)N3)cc1 [Compound 21] What is its recorded activation at 57 µM?
Reply text: 110

----------
This section presents molecules with their documented activation at 57 µM values.
# target.or.system: hPK, M2 (Homo sapiens)
# protocol.notes: luminescent pyruvate kinase-luciferase coupled assay (qHTS)
# Format: biochemical
# test.context: Table 1; % activation at 57 μM of compound; mean of three replicate experiments; read-out: hPK, M2 Max. Res.
Show the value, then the unit it is measured in.

Here are 2 molecules together with their reported answers.
{"substance.smiles": "CC(=O)N1CCc2cc(S(=O)(=O)Nc3ccc(C)c(C)c3)ccc21", "val": "65%"}
{"substance.smiles": "Cc1ccc(NS(=O)(=O)c2ccc3c(c2)CCC(=O)N3)cc1C", "val": "104%"}

Okay, next one:
Inquiry: Value lookup for activation at 57 µM; key = `Cc1ccc(NS(=O)(=O)c2ccc3c(c2)CC(=O)N3)cc1C`
Reply text: 130%

----------
# target.or.system: hPK, M2 (Homo sapiens)
# protocol.notes: luminescent pyruvate kinase-luciferase coupled assay (qHTS)
# Type: biochemical
# test.context: Table 3; 0.1 mM ADP, 0.5 mM PEP; mean of three replicate experiments; read-out: hPK, M2 AC50
Reported AC50 values for a set of compounds
// note: answer is a bare numeric in nM

{"substance.smiles": "Cc1ccc(NS(=O)(=O)c2cc3c(cc2Cl)CCC(=O)N3)cc1C", "AC50, nM": 260}
{"substance.smiles": "Cc1ccc(NS(=O)(=O)c2cc3c(cc2N(C)C)NC(=O)CC3)cc1C", "AC50, nM": 520}
{"substance.smiles": "Cc1ccc(NS(=O)(=O)c2cc3c(cc2N2CCCCC2)NC(=O)CC3)cc1C", "AC50, nM": 15000}
{"substance.smiles": "Cc1ccc(NS(=O)(=O)c2cc3c(cc2-c2ccccc2)NC(=O)CO3)cc1C", "AC50, nM": 20600}

// next item, AC50 requested
Inquiry: Reported AC50 for `Cc1ccc(NS(=O)(=O)c2cc3c(cc2N(C)C)CCC(=O)N3)cc1C` : what is it?
Reply text: 460
